B1: glmS ribozyme (parent)
chain: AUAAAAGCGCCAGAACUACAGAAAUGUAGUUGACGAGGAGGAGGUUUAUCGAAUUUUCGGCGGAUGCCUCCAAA

Variants of: B1
assay.name: self-cleavage kobs at 640 uM GlcN6P; higher = faster cleavage; RNA array
experimental.context: with glucosamine-6-phosphate
Variants at the floor of the assay were thinned out.
I would appreciate it if you labelled entries yes when self-cleavage kobs at 640 uM GlcN6P is 0.0001 s⁻¹ or higher, otherwise no.

For orientation, consider the following solved cases.
mutations: C11A
classification: no
--
mutations: A12C C50G
classification: no
--
mutations: G35A U46G C61G
classification: no

--- query ---
# check: self-cleavage kobs at 640 uM GlcN6P of U45G U56C is greater than or equal to 0.0001 s⁻¹
yes
